# measurement.target: human ALK (Homo sapiens)
# Construct: GST (N); purchased Invitrogen, Carlsbad, Calif; (or prepared by AstraZeneca); host or cells: insect cells
# Sequence (Q9UM73 1058-1620): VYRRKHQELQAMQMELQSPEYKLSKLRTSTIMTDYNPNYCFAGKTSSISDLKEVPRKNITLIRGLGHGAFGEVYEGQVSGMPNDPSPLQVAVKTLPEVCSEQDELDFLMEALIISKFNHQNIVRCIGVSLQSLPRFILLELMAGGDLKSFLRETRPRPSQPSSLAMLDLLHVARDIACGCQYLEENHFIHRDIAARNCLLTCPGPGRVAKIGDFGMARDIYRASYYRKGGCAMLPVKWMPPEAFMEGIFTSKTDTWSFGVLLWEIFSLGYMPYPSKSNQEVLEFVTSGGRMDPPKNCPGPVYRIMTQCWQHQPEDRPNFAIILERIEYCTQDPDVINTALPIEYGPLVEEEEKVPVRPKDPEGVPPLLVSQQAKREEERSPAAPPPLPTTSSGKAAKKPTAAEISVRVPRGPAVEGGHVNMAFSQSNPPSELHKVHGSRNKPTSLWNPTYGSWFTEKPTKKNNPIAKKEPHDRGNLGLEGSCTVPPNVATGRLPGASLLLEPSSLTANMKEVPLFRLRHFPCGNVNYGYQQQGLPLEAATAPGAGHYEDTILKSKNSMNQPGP
# protocol.notes: ALK kinase mobility shift assay (Caliper LC3000)
# Format: biochemical
# particulars: geometric means of multiple test runs, as presented in the priority filings; ATP 30 μM (Km) or 5 mM, not specified which; read-out: ALK Enzyme IC50 (μM)*
I'd appreciate it if you could supply log10(IC50) values for the items below.
Values are log10 of IC50 in µM.

Ask: Query (compound): COc1cc(N2CC[C@H](N)[C@H](F)C2)ccc1Nc1ncc(Cl)c(-c2c[nH]c3ccccc23)n1 [Example 33] ; field requested: log10(IC50)
Reply: -1.60

Ask: log10(IC50) for COc1cc(N2CCC(N(C)C)CC2)c(C)cc1Nc1ncc(Cl)c(-c2c[nH]c3ccccc23)n1 [Example 16] ?
Reply: -1.72

Ask: I am curious: what log10(IC50) value has been reported for COc1cc(N2CCC(N3CCN(C)CC3)CC2)c(F)cc1Nc1ncc(F)c(-c2c[nH]c3ccccc23)n1 [Example 37] ?
Reply: -0.61

Ask: Which log10(IC50) value is on record for COc1cc(N2CCC(N3C[C@@H](C)O[C@@H](C)C3)CC2)ccc1Nc1ncc(Cl)c(-c2c[nH]c3ccccc23)n1 [Example 24] ?
Reply: -0.85

Ask: Return reported log10(IC50); argument: COc1cc(N2CCC(N)CC2)ccc1Nc1ncc(C)c(-c2c[nH]c3ccccc23)n1 [Example 5]
Reply: -1.52

Ask: Can you share its log10(IC50)? I mean this compound: COc1cc(N2CCC(N3CCN(C)CC3)CC2)ccc1Nc1ncc(F)c(-c2cn(C)c3ccccc23)n1 [Example 36]
Reply: 0.17

Ask: Bench note: what log10(IC50) did COc1cc(N2CCC(N(C)C)CC2)ccc1Nc1ncc(F)c(-c2c[nH]c3ccccc23)n1 [Example 13] show?
Reply: -1.30

Ask: So what does the record say about log10(IC50) for COc1cc(N2CCC(NC3CC3)CC2)ccc1Nc1ncc(Cl)c(-c2c[nH]c3ccccc23)n1 [Example 6] ?
Reply: -1.24

Ask: I'd like to know its log10(IC50). The compound in question is COc1cc(N2CCC(N3CCN(S(C)(=O)=O)CC3)CC2)ccc1Nc1ncc(Cl)c(-c2c[nH]c3ccccc23)n1 [Example 21]
Reply: -0.63

Ask: # query: log10(IC50) of entry COc1cc(N2CCC(N3CCN(C)CC3)CC2)ccc1Nc1ncc(C(F)(F)F)c(-c2c[nH]c3ccccc23)n1 [Example 8]
Reply: -1.21

Ask: Field request: log10(IC50) | item: COc1cc(N2CCC(N(C)C)CC2)ccc1Nc1ncc(Cl)c(-c2c[nH]c3ccccc23)n1 [Example 12]
Reply: -1.64

Ask: Can you share its log10(IC50)? I mean this compound: COc1cc(N2CCC(NCCO)CC2)ccc1Nc1ncc(Cl)c(-c2c[nH]c3ccccc23)n1 [Example 20]
Reply: -1.54

Ask: What value of measured log10(IC50) is listed for COc1cc(N2CCC(N(C)C)CC2)ccc1Nc1ncc(C(F)(F)F)c(-c2c[nH]c3ccccc23)n1 [Example 29] ?
Reply: -1.68

Ask: I am curious: what log10(IC50) value has been reported for COc1cc(N2CCC(N)CC2)c(C)cc1Nc1ncc(Cl)c(-c2c[nH]c3ccccc23)n1 [Example 18] ?
Reply: -1.57

Ask: I am curious: what log10(IC50) value has been reported for COc1cc(N2CCC(N3CCN(C)CC3)CC2)c(F)cc1Nc1ncc(C)c(-c2c[nH]c3ccccc23)n1 [Example 38] ?
Reply: -0.59
